System: C. albicans ATCC 90028

{"MOLECULE": "C=C[C@]1(C)C[C@@H](OC(=O)CSCCN(CC)CC)[C@]2(C)[C@H](C)CC[C@]3(CCC(=O)[C@H]32)[C@@H](C)[C@@H]1O [Compound 2, Tiamulin, reference compound]", "MIC": "> 64.8 µM"}
{"MOLECULE": "OC(Cn1cncn1)(Cn1cncn1)c1ccc(F)cc1F [fluconazole, reference compound]", "MIC": "0.4 µM"}
{"MOLECULE": "C=C[C@]1(C)C[C@@H](OC(=O)CNCCCNCCCCCCCCCCCCNCCCNCC(=O)O[C@@H]2C[C@@](C)(C=C)[C@@H](O)[C@H](C)[C@]34CCC(=O)[C@H]3[C@@]2(C)[C@H](C)CC4)[C@]2(C)[C@H](C)CC[C@]3(CCC(=O)[C@H]32)[C@@H](C)[C@@H]1O.O=C(O)C(F)(F)F.O=C(O)C(F)(F)F.O=C(O)C(F)(F)F.O=C(O)C(F)(F)F", "MIC": "21.5 µM"}
{"MOLECULE": "C=C[C@]1(C)C[C@@H](OC(=O)CNCCCNCCCCCCCCNCCCNCC(=O)O[C@@H]2C[C@@](C)(C=C)[C@@H](O)[C@H](C)[C@]34CCC(=O)[C@H]3[C@@]2(C)[C@H](C)CC4)[C@]2(C)[C@H](C)CC[C@]3(CCC(=O)[C@H]32)[C@@H](C)[C@@H]1O.O=C(O)C(F)(F)F.O=C(O)C(F)(F)F.O=C(O)C(F)(F)F.O=C(O)C(F)(F)F", "MIC": "> 22.3 µM"}
{"MOLECULE": "C=C[C@]1(C)C[C@@H](OC(=O)CNCCCNCCCCCCNCCCNCC(=O)O[C@@H]2C[C@@](C)(C=C)[C@@H](O)[C@H](C)[C@]34CCC(=O)[C@H]3[C@@]2(C)[C@H](C)CC4)[C@]2(C)[C@H](C)CC[C@]3(CCC(=O)[C@H]32)[C@@H](C)[C@@H]1O.O=C(O)C(F)(F)F.O=C(O)C(F)(F)F.O=C(O)C(F)(F)F.O=C(O)C(F)(F)F", "MIC": "> 22.7 µM"}
{"MOLECULE": "C=C[C@]1(C)C[C@@H](OC(=O)CNCCCNCCCCNCCCNCC(=O)O[C@@H]2C[C@@](C)(C=C)[C@@H](O)[C@H](C)[C@]34CCC(=O)[C@H]3[C@@]2(C)[C@H](C)CC4)[C@]2(C)[C@H](C)CC[C@]3(CCC(=O)[C@H]32)[C@@H](C)[C@@H]1O.O=C(O)C(F)(F)F.O=C(O)C(F)(F)F.O=C(O)C(F)(F)F.O=C(O)C(F)(F)F", "MIC": "> 23.2 µM"}
{"MOLECULE": "C=C[C@]1(C)C[C@@H](OC(=O)CNCCCNCCCCCCCCCCNCCCNCC(=O)O[C@@H]2C[C@@](C)(C=C)[C@@H](O)[C@H](C)[C@]34CCC(=O)[C@H]3[C@@]2(C)[C@H](C)CC4)[C@]2(C)[C@H](C)CC[C@]3(CCC(=O)[C@H]32)[C@@H](C)[C@@H]1O.O=C(O)C(F)(F)F.O=C(O)C(F)(F)F.O=C(O)C(F)(F)F.O=C(O)C(F)(F)F", "MIC": "10.9 µM"}
{"MOLECULE": "C=C[C@]1(C)C[C@@H](OC(=O)CNCCCNCCCCCCCNCCCNCC(=O)O[C@@H]2C[C@@](C)(C=C)[C@@H](O)[C@H](C)[C@]34CCC(=O)[C@H]3[C@@]2(C)[C@H](C)CC4)[C@]2(C)[C@H](C)CC[C@]3(CCC(=O)[C@H]32)[C@@H](C)[C@@H]1O.O=C(O)C(F)(F)F.O=C(O)C(F)(F)F.O=C(O)C(F)(F)F.O=C(O)C(F)(F)F", "MIC": "> 22.5 µM"}
